Literature survey of IC50 (system: Tyrosine-protein kinase Fes/Fps (Homo sapiens)).
Sequence (P07332 whole entry): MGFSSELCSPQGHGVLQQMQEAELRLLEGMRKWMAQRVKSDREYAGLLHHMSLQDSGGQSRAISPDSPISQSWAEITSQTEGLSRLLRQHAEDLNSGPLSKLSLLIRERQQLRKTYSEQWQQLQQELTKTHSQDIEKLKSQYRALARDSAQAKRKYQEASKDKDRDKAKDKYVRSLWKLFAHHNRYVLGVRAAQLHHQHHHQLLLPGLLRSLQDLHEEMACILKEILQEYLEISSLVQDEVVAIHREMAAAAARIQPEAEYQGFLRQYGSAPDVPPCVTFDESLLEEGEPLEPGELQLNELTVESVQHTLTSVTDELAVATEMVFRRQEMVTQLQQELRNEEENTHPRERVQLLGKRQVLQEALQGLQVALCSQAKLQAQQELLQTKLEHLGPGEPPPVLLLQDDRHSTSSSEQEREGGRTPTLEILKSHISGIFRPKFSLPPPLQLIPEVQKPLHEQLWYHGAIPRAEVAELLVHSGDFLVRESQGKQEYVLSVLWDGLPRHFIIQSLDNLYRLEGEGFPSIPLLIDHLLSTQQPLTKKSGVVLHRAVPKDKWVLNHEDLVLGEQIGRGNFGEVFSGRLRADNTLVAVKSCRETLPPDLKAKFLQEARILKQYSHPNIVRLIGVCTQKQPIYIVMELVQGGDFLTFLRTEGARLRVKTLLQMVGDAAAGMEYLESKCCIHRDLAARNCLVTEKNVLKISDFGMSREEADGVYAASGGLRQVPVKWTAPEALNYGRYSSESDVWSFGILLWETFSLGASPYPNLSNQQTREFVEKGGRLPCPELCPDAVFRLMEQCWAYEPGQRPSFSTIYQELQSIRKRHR
propertyName: IC50 (nM)

[[record]]
mol = "COc1c(Nc2ncc(Cl)c(N[C@H]3[C@@H](C(N)=O)[C@@H]4C=C[C@H]3C4)n2)ccc2c1CC[C@@H](N1CCOCC1)CC2"
rel = "="
resultnumber = 99

[[record]]
mol = "Cc1cc(NC(=O)Nc2cc(C(C)(C)C)nn2-c2ccc(Cl)cc2)ccc1Nc1ncnc2c1OC(C)(C)C(=O)N2"
rel = "="
resultnumber = 269

[[record]]
mol = "Nc1nccn2c1c(-c1ccc3ccc(-c4ccccc4)nc3c1)nc2[C@H]1C[C@@H](CN2CCC2)C1"
rel = ">"
resultnumber = 10000

[[record]]
mol = "N#CCNC(=O)c1ccc(-c2ccnc(Nc3ccc(N4CCOCC4)cc3)n2)cc1"
rel = ">"
resultnumber = 1000

[[record]]
mol = "CCN1CCN(Cc2ccc(NC(=O)c3ccc(C)c(Oc4cc(NC)ncn4)c3)cc2C(F)(F)F)CC1"
rel = "="
resultnumber = 252

[[record]]
mol = "O=C(c1ccc(F)c(F)c1Nc1ccc(I)cc1F)N1CC(O)([C@@H]2CCCCN2)C1"
rel = ">"
resultnumber = 10000

[[record]]
mol = "CCN1CCN(Cc2ccc(NC(=O)c3ccc(C)c(Oc4ncnc5cc(OC)c(OC)cc45)c3)cc2C(F)(F)F)CC1"
rel = "="
resultnumber = 50.8

[[record]]
mol = "CCN1CCN(Cc2ccc(NC(=O)c3ccc(C)c(Oc4ncnc5[nH]c(C)cc45)c3)cc2C(F)(F)F)CC1"
rel = "="
resultnumber = 69.7

[[record]]
mol = "CCN1CCN(c2ccc(Nc3ncc4scc(-c5cccc(NS(C)(=O)=O)c5)c4n3)cc2)CC1"
rel = "="
resultnumber = 4.9

